Tested on: SK-MEL-2 melanoma
Assay: NCI-60 one-dose screen, 48 h
Details: 10 µM unless noted
Compounds without any hit were thinned out: in the full panel of roughly 83,000, 20% have a hit. The source made the active and inactive calls. The calls were made as follows: active = growth percent below 10; inactive = the rest.
Labels: yes = active, no = inactive

INSERT INTO measurements (molecule, label) VALUES
  ('O=C(CN1C(=O)/C(=C/c2ccccc2)SC1=S)N1CCOCC1', 'no'),
  ('COc1ccc([C@@H]2c3[nH]c4ccccc4c3CC3C(=O)N(C4CCN(Cc5c(F)cccc5F)CC4)CC(=O)N32)c(OC)c1 (stereo not given in full)', 'no'),
  ('Cc1ccc(C(=O)Nc2cccc(C(F)(F)F)c2)cc1Nc1nc(-c2cnccn2)nc2c1cnn2C', 'yes'),
  ('COc1ccc(-c2nn3c(-c4ccccc4F)nnc3s2)cc1', 'no'),
  ('CCCC(=O)NC(c1ccc(N(CC)CC)cc1)c1cc(C)c2cccnc2c1O (stereo not given)', 'no');

---

Tested on: OVCAR-5 ovarian
Test: NCI-60 one-dose screen, 48 h
Conditions: 10 µM unless noted
Compounds without any hit were thinned out: in the full panel of roughly 83,000, 20% have a hit. The source made the active and inactive calls. How the source made its calls: active means growth percent below 10; inactive means the rest.
Outcomes: 1 = active, 0 = inactive

INSERT INTO measurements (molecule, testedon, label) VALUES
  ('Clc1ccc2oc3c(NCCCn4ccnc4)c4ccccc4nc3c2c1', 'OVCAR-5 ovarian', 0),
  ('N#Cc1c(-c2ccc(Cl)cc2)nc(SCc2ccc(F)cc2)nc1N1CCNCC1', 'OVCAR-5 ovarian', 0),
  ('O=C1Nc2cc(Cl)ccc2/C1=C\c1ccc(OCc2ccc(Br)cc2F)cc1', 'OVCAR-5 ovarian', 1),
  ('COc1cc(N=Cc2sc(Nc3nccs3)nc2O)cc(OC)c1OC', 'OVCAR-5 ovarian', 0),
  ('CN(C)c1ccc(/C=C2\Cc3c(F)ccc(Br)c3C2=O)cc1', 'OVCAR-5 ovarian', 0),
  ('N#Cc1ccc(C(=O)CSc2nc(Nc3ccc(S(N)(=O)=O)cc3)c3ccccc3n2)cc1', 'OVCAR-5 ovarian', 0),
  ('CCOC(=O)c1c(Nc2ccccc2)nn2c(-c3ccco3)c(C#N)cnc12', 'OVCAR-5 ovarian', 0),
  ('Cc1ccccc1NC(=O)/C=C/c1ccc(OCCOc2ccc3c(C)cc(=O)oc3c2)cc1', 'OVCAR-5 ovarian', 0),
  ('COc1cc(OC)c(C2C(Cl)C(=O)N2Nc2ncnc3ccccc23)cc1OC (centres undefined)', 'OVCAR-5 ovarian', 0),
  ('CCOc1ccc2nc(NC(=O)c3ccc(C(F)(F)F)cc3)sc2c1', 'OVCAR-5 ovarian', 0),
  ('Cc1ccc(-c2nc(C(Cl)Cl)nc3cc(-c4ccccc4)nn23)cc1', 'OVCAR-5 ovarian', 1),
  ('CCCC(=O)NC(c1ccc(N(CC)CC)cc1)c1cc(C)c2cccnc2c1O (centres undefined)', 'OVCAR-5 ovarian', 0),
  ('O=C(N/N=C/c1ccc(Cl)s1)c1[nH]c2ccc(Br)cc2c1-c1ccccc1', 'OVCAR-5 ovarian', 0),
  ('Cn1cc(-c2cc(N)n3nc(-c4cn(C)c5ccc(F)cc45)cc3n2)c2cc(F)ccc21', 'OVCAR-5 ovarian', 0),
  ('O=C(CSc1nccc(=O)[nH]1)Nc1ccc(-c2nc3ccccc3[nH]2)cc1', 'OVCAR-5 ovarian', 0),
  ('CS(=O)(=O)c1ccc(-c2nc3ccccn3c2-c2nc3ccc([N+](=O)[O-])cc3[nH]2)cc1', 'OVCAR-5 ovarian', 0),
  ('Nc1c(C(=O)Nc2ccc(Cl)cc2)sc2nc(-c3cnccn3)cc(-c3cccs3)c12', 'OVCAR-5 ovarian', 0),
  ('C=C1CC[C@H]2[C@@](C)(CCC3OC(c4ccc(OCc5cn(C6CC(OC(C)=O)C(OC(C)=O)C(COC(C)=O)O6)nn5)cc4)OC[C@]32C)[C@@H]1/C=C/C1=CCOC1=O (some centres undefined)', 'OVCAR-5 ovarian', 0),
  ('Nc1ncc(-c2ccc3ncnc(N4CCc5cc(F)c(Cl)cc54)c3c2)cc1CO', 'OVCAR-5 ovarian', 0),
  ('COc1ccc([C@@H]2c3[nH]c4ccccc4c3CC3C(=O)N(C4CCN(Cc5c(F)cccc5F)CC4)CC(=O)N32)c(OC)c1 (some centres undefined)', 'OVCAR-5 ovarian', 0),
  ('N#Cc1ccc(/C=N/NC(=O)c2[nH]c3ccc(Br)cc3c2-c2ccccc2)s1', 'OVCAR-5 ovarian', 0),
  ('COc1ccc(CNS(=O)(=O)/N=C2\NC(=O)NC2=C(Cl)Cl)cc1', 'OVCAR-5 ovarian', 0),
  ('CNC(=O)c1cc(-c2ccc(NC(=O)Nc3ccc(N4CCOCC4)c(C(F)(F)F)c3)cc2)nc2cccnc12', 'OVCAR-5 ovarian', 0),
  ('N#Cc1nc(-c2ccccc2)oc1N1CC[C@@H](CO)C1', 'OVCAR-5 ovarian', 0),
  ('CSCCC(C(=O)O)N1C(=O)/C(=C/c2ccc(O)c(O)c2)SC1=S (centres undefined)', 'OVCAR-5 ovarian', 0),
  ('CN(C)CCCNc1c2ccccc2nc2c1oc1ccc(Cl)cc12', 'OVCAR-5 ovarian', 0),
  ('COc1ccc(C(=O)/C=C/c2ccc(Oc3nc(NCCO)nc(N4CCOCC4)n3)c(OC)c2)cc1', 'OVCAR-5 ovarian', 0),
  ('Cc1ccc2c(n1)C(=O)C(Cl)=C(Nc1cccc(C(C)C)c1)C2=O', 'OVCAR-5 ovarian', 0),
  ('COc1cc(/C=C/C(=O)c2ccccc2)ccc1Oc1nc(NCCO)nc(N2CCOCC2)n1', 'OVCAR-5 ovarian', 0),
  ('Cc1cc(C(=O)Nc2sc3c(c2C(N)=O)CCC(=O)C3)ccc1OCCN1CCCCC1', 'OVCAR-5 ovarian', 0),
  ('C=CCn1c(SCC(=O)c2ccc(Br)cc2)nnc1-c1c[nH]c2ccccc12', 'OVCAR-5 ovarian', 0),
  ('Cc1sc2nc(NCc3ccccc3Cl)[nH]c(=O)c2c1C', 'OVCAR-5 ovarian', 0),
  ('Clc1ccc2c(OCCCN3CCOCC3)c3oc4ccccc4c3nc2c1', 'OVCAR-5 ovarian', 0),
  ('COc1cc(-c2nc3ccc(-c4nnc(SCC(=O)Nc5ccc(C(=O)/C=C/c6ccc(Cl)cc6)cc5)o4)cc3[nH]2)cc(OC)c1OC', 'OVCAR-5 ovarian', 0),
  ('Nc1cc(-c2c[nH]c3ccccc23)nc2cc(-c3c[nH]c4ccccc34)nn12', 'OVCAR-5 ovarian', 0),
  ('COc1cc(/C=C/C(=O)c2cc(OC)c(OC)c(OC)c2)ccc1OCc1ccc(F)cc1', 'OVCAR-5 ovarian', 0),
  ('O=C(CSc1nc2sc3c(c2c(=O)n1-c1ccc(Cl)cc1)CCCC3)NNC(=O)Nc1ccc(Cl)c(C(F)(F)F)c1', 'OVCAR-5 ovarian', 0),
  ('Clc1ccc2c(NCCCn3ccnc3)c3oc4ccccc4c3nc2c1', 'OVCAR-5 ovarian', 0),
  ('O=C(CCCN1C(=O)/C(=C/c2ccccc2F)SC1=S)N1CCOCC1', 'OVCAR-5 ovarian', 0);

---

Tested on: UACC-62 melanoma
Assay: NCI-60 one-dose screen, 48 h (100 = growth as untreated, 0 = no growth, -100 = all killed)
Details: 10 µM unless noted
The panel holds about 83,000 compounds, 20% with a hit somewhere; the sample as a whole holds those more often.
Entries and their measured growth follow.
resultType: growth (%)

INSERT INTO measurements (compound, measvalue) VALUES
  ('Cc1ccc2ccc3ccc(C)nc3c2n1.Cc1ccc2ccc3ccc(C)nc3c2n1.Oc1c(Cl)cc(Cl)c2ccc(CN3CCCCC3)nc12.[Ru]', -74),
  ('COc1cc(OC)c(C2SCC(=O)N2Nc2ncnc3ccccc23)cc1OC (centres undefined)', 97.6),
  ('CNC(=O)c1cc(-c2ccc(NC(=O)Nc3ccc(N4CCN(C)CC4)c(C(F)(F)F)c3)cc2)nc2cccnc12', -83.8),
  ('CCN1CCN(S(=O)(=O)c2oc(-c3ccc(Cl)cc3)nc2C#N)CC1', 88.7),
  ('CC1=C(C)C(=O)C(Nc2cccc(C(F)(F)F)c2)=C(Cl)C1=O', 80.2),
  ('[Cl][Ru].c1ccc(-c2cccc(-c3ccccn3)n2)nc1.c1ccc(-c2ccnc3c2ccc2c(-c4ccccc4)ccnc23)cc1', 14.2),
  ('Cc1cc2nc3c4cc(Cl)ccc4n(CC(=S)NCCN(C)C)c3nc2cc1C', -67.1),
  ('NC(=O)c1c(NC(=O)c2ccc(C3CCCCC3)cc2)sc2c1CCC(=O)C2', 26.4),
  ('COc1ccc(-c2cc(C(=O)N=Nc3c(O)[nH]c4ccccc34)c3ccccc3n2)cc1OC', 91.5),
  ('CCOC(=O)c1csc(NC(=O)CSc2nc3sc4c(c3c(=O)n2-c2ccc(Cl)cc2)CCCC4)n1', 85),
  ('Cc1ccc(CNS(=O)(=O)/N=C2\NC(=O)NC2=C(Cl)Cl)cc1', 77.3),
  ('N/C(=N\c1nc2c(Br)cccc2s1)C(Br)Br', -5.13),
  ('COc1ccc(/C=C/C(=O)c2ccc(NC(=O)CSc3nnc(-c4ccc5nc(-c6ccc(Cl)cc6)[nH]c5c4)o3)cc2)cc1', 83.8),
  ('CN(C)CCCNc1c2ccccc2nc2c1oc1ccc(Cl)cc12', 52.1),
  ('COc1ccc(/C=N/NC(=O)c2[nH]c3ccc(Br)cc3c2-c2ccccc2)s1', 42.4),
  ('O=C(Nc1nc2ccc(O)cc2s1)c1cccc(C(F)(F)F)c1', 45.6),
  ('CC(=O)Nc1cc(F)cc(-c2ccc3[nH]cc(-c4ccccc4)c3n2)c1', -1.28),
  ('O=C(c1ccc(Cl)cc1)C1[C@H](c2ccc(Cl)cc2)[C@@H](c2ccccc2)NC12C(=O)Nc1ccc(Br)cc12 (some centres undefined)', 37.4),
  ('C#Cc1nc(C2=C(C)C(O)CC2)cs1 (centres undefined)', 94.2),
  ('COc1ccc(-c2csc(N/N=C/c3c(-c4ccc(S(C)(=O)=O)cc4)nc4ccccn34)n2)cc1', 102),
  ('O=C(N/N=C/c1cccs1)c1[nH]c2ccc(Br)cc2c1-c1ccccc1', 43),
  ('C#Cc1nc(C2=C(C)C(OC(=O)CCC(=O)O)CC2)cs1 (centres undefined)', 95.3),
  ('Nc1nc(N)c2c(n1)NC(c1ccc(F)cc1)CC(c1ccc(Nc3nc(NCCO)nc(Nc4ccc(Cl)cc4)n3)cc1)=N2 (centres undefined)', 49.8),
  ('CN(C)CCCNc1c2ccc(Cl)cc2nc2c1oc1ccccc12', 13.4),
  ('N[C@@H](Cc1cn(-c2c3ccccc3nc3ccccc23)nn1)C(=O)O', 93.5),
  ('O=C(CSc1nc2sc3c(c2c(=O)n1-c1ccc(Cl)cc1)CCCC3)NNC(=O)Nc1cccc(C(F)(F)F)c1', 17.3),
  ('c1ccc2c(NCCCN3CCOCC3)c3oc4ccccc4c3nc2c1', -52.1),
  ('COc1ccc2[nH]cc(-c3cc(N)n4nc(-c5c[nH]c6ccc(OC)cc56)cc4n3)c2c1', -53.4),
  ('Cn1c(SCC(=O)Nc2ccc(-c3nc4ccc([N+](=O)[O-])cc4[nH]3)cc2)nc2ccccc2c1=O', 75),
  ('Cc1cccc2sc(/N=C(\N)C(Br)Br)nc12', 22),
  ('CN1C(=S)N(C)C2C1NN=C1SC(c3ccccc3)=CC(=O)N12 (centres undefined)', 78.3),
  ('Cn1ccnc1C(=O)/C=C/c1ccc(NC(=O)Nc2ccccc2)cc1', 38.5),
  ('CC(C)Sc1nc(Nc2ccc(S(N)(=O)=O)cc2)c(C#N)c(-c2ccc(F)cc2)n1', 46.5),
  ('Clc1ccc2oc3c(NCCCN4CCOCC4)c4ccccc4nc3c2c1', 40),
  ('Cn1ccnc1C(=O)/C=C/c1ccc(NC(=O)Nc2ccc(F)cc2)cc1', 46.3),
  ('Cc1cc(=O)oc2cc(OCCCOc3ccc(/C=C/C(=O)Nc4ccc(Cl)cc4)cc3)ccc12', 75.7),
  ('COc1cc2nc(-c3ccc(Cl)cc3)cc(OCCCNCC3CCCO3)c2cc1OC (centres undefined)', -56.2),
  ('CC(=NNc1ncnc2ccccc12)c1ccc(S(C)(=O)=O)cc1', 96.1),
  ('CS(=O)(=O)c1ccc(-c2nc3ccccn3c2-c2nc3ccc([N+](=O)[O-])cc3[nH]2)cc1', 88.6);

Data provenance: PubChem BioAssay (NCI)
